System: COLO 205
PROCEDURE DETAILS: NCI tumour cell line growth inhibition, 48 h
Activity calls are given as the source filed them. Cut-off read from the data, not from the text of the source: active = GI50 up to about 1.1 µM and inactive = higher.
Just give me one of these, please: active, inactive

Worked examples follow.
COMPOUND | GROUP LABEL
CCOC(=O)C(=O)Nc1cccc(Cl)c1C | inactive
CCOC(=O)/C(C#N)=C/N(CC)/N=C/c1ccccc1 | inactive
Cc1cccc2c1Oc1cc(Cl)ccc1C2NC(=O)CCN1CCN(CCO)CC1 (stereo unspecified) | inactive

Input: // outcome(item) with item = O=C1CSC(c2cccc(Oc3ccccc3)c2)N1c1cccc(Cl)c1Cl (stereo unspecified)
Output: inactive

Input: Record: CCCCS/C(=C(/C#N)C(N)=O)c1cc2c([nH]1)CCCC2
Output: inactive

Input: Try this compound next: CCN(CC)CCNC(=O)c1ccccc1NC(=O)C(=O)Nc1ccccc1C(=O)NCCN(CC)CC
Output: inactive

Input: Lookup CCN1C/C(=C\c2cc(OC)c(OC)c(OC)c2)C2=NN(c3ccccc3)C(c3cc(OC)c(OC)c(OC)c3)C2C1 (stereo unspecified)
Output: inactive

Input: Please do the same for COc1cccc(CCNc2c(C#N)c3nc4ccccc4n3c3ccccc23)c1 as well.
Output: active

Input: Can you handle CC(=O)c1ccc2c(ccc(=O)n2C)c1 next?
Output: inactive

Input: Subsequent entry: Cc1ccc(S(=O)(=O)Nc2cccc3c(=O)nc[nH]c23)cc1
Output: inactive

Input: Next: COc1ccc(-n2c(C)nc3ccc(NC(=S)Nc4ccccc4)cc3c2=O)cc1
Output: inactive
